Attribution: patent US20200277374A1

# tested-system: T1, Siglec-7-Fc (plate immobilized) (human, UniProt Q9Y286 19-357, limits assumed)
# T1 construct: also called Siglec-7-Fc protein; immobilized Siglec-7; not shown: Fc part
# T1 sequence (Q9Y286 19-357 limits assumed): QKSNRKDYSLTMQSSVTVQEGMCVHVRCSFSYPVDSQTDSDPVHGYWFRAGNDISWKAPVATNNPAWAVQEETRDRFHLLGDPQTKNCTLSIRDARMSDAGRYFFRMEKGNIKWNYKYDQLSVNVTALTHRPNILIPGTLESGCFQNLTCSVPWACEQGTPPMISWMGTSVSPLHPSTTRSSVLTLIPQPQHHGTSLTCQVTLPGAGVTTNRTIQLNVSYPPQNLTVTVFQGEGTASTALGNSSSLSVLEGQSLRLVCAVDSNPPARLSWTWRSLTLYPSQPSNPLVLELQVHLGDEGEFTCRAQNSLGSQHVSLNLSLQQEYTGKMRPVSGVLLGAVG
# procedure-summary: RBC solid adhesion assay, plate-coated Siglec-7-Fc, antibody 0.5 or 1.0 ug/ml; % of RBC binding without antibody
# Protocol: To determine which antibodies compete with ligand binding to Siglec-7, a red blood cell (RBC) solid adhesion assay was carried out in accordance with standard protocols (Kelm et al., Current Biology, 1994). […] Bound RBCs were detected by peroxidase activity, followed by 2N sulfuric acid to stop the reaction. Signal was detected at […]. Data was calculated as a percent of RBC binding to plate bound Siglec-7-Fc in the absence of antibody.
outcome-measure: Percent RBC Binding to Siglec-7 (%)
Report as a plain number; the unit % is understood.

binder	Percent RBC Binding to Siglec-7 (%)
anti-Siglec-7 antibody 4D7 (antibody, V domains shown, Variable domains assembled from FR and CDR entries) VH: QVQLQQSGAELVKPGASVKLSCKTSGYTFTNYWINWVKQRPGQGLEWIGNIYSGSSRTNYNEKFKSKATLTVDTSSSTAYMQLSSLTSDDSAVYYCAREGLRAMDYWGQGTSVTVSS VL: NZMTQFQKFMSTSVGDRVSLTCKASQKVGTNVAGFQQKPGHSPKAGIYSASTRHRGVQDRFTARGLGSDFILPITTZQLEDLAEYZCHQGNSVQYTFGGGTKLEIK	96.5
anti-Siglec-7 antibody 2G1 (antibody, V domains shown, Variable domains assembled from FR and CDR entries; the printed VL FR1 looks shortened at its N-terminus; also called 2G11 (misprint in text)) VH: EVKLVESGGTLVKPGGSLKISCAASGFTFSNYDMSWVRQNPEKRLEWVATISSGGDYTYYPDIFKGRFTISRDDAKNALYLQMSSLRSEDTALYYCARHGYGNYDWYFDVWGAGATVTVSS VL: VLTQSPAIMSASPGEKVTMTCSANSSFIYMYWYQQKPGSSPRLLIFDTSNLASGVPIRFSGSGSGTSYSLTISRMEAEDTATYYCQQWSSSPLTFGGGTKLELK	14.5
anti-Siglec-7 antibody 3E11 (antibody, V domains shown, Variable domains assembled from FR and CDR entries) VH: QVQLQQSGAELARPGASVKLSCKASGYIFTDYGITWVKQRTGQGLEWIGEISPRSGETYFNENYRVKATLTADKSSSTAYMQLFSLTSEDSAVYFCAREGNPFTYWGHGTLVTVSA VL: DVZMTQTPLSLPVSLGDQASISCRSSQSLVHSTGNTYLHWYLQKPGQSPKLLIYKVSNRFCGVPDRFSGSGAGTDFTLKISRVEAEDLGVYFCSQNTHVPYTFGGGTKLEIK	26.8
anti-Siglec-7 antibody 7E11 (antibody, V domains shown, Variable domains assembled from FR and CDR entries) VH: QVQLKQSGPVLVAPSQSLSITCTVSGFSLSNYGVHWVRQFPGKGLEWLGVIWAGGITNYNSVLMSRLSISKDNSKSQVFLKMNSLQTDDTAMYYCAKQGGTSFSYWGQGTLVTVSA VL: DIQMTQSPASQSASLGESVTITCLASQTIGTWLAWYQQKPGKSPQLLIYAATSLADGVPSRFSGSGSGTKFSFKISSLQAEDFVSYYCQQLYSTPYTFGGGTKLEIK	89.3

// sample anti-Siglec-7 antibody 4E3 (antibody, V domains shown, VL FR1 there holds a Z); also called S7-4E3; mAb S7-4E3) VH: EVQLVESGGALVKPGGSLKISCAVSGFIFSNYDMSWVRQNPEKRLEWVATISSGGGYTYYPDSVKGRFTISRDNAKNALYLQMSSLRSEDTALYYCTRHGYGNYDWYFDVWGAGATVTVSS VL: QIVLTQSPAILSASPGEKVTMTCSANSSFTYMYWYQQKPGSSPRLLIFDTSNLASGVPIRFSGSGSGTSYSLTISRMEAEDTATYYCQQWSSSPLTFGAGTKLELK , its Percent RBC Binding to Siglec-7 was 20.2
